Biological target: glucagon receptor
Assay: cell-based or functional assay
Square brackets hold non-standard residues; d marks the D form. Ends that are not written are not given here. Aib = CC(C)(N)C(=O)O
valueType: In vitro activity (Relative Activity to SEQ ID NO: 1, %)

binder: Y[Aib]QGTFTSDYSCYLDSRRAQDFVQWLMNT [glucagon derivative of SEQ ID NO: 13]
measuredNumber: 5.2
--
binder: Y[Aib]QGTFTSDYSKYLDCVRAQDFVQWLMRT [glucagon derivative of SEQ ID NO: 17]
measuredNumber: 23.2
--
binder: Y[Aib]QGTFTSDYSKYLCEKRAQDFVVWLMNT [glucagon derivative of SEQ ID NO: 15]
measuredNumber: 1.1
--
binder: YXQGTFTSDYSKYLDSRRAQDFVQWLMNT (aminoisobutyric acid (Aib) at position 2 (printed X)) [glucagon derivative of SEQ ID NO: 33]
measuredNumber: 108
--
binder: Y[Aib]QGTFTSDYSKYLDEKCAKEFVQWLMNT [glucagon derivative of SEQ ID NO: 11]
measuredNumber: 4.6
--
binder: HSQGTFTSDYSKYLDSCEAQDFVQWLMNT [glucagon derivative of SEQ ID NO: 5]
measuredNumber: 0.3
